- Test system: SK-MEL-28 melanoma
- test-description: NCI tumour cell line growth inhibition, 48 h
Some molecules, each annotated with its measured TGI.

>  <molecule>
CC(C)N(C(=O)C12C3C4C1C1C4(C#N)C3C12C(=O)O)C(C)C (centres undefined)

>  <comparison-sign>
>

>  <TGI / µM>
100

$$$$
>  <molecule>
OCCNc1nc2ccccc2c2[nH]c3ccccc3c12

>  <comparison-sign>
=

>  <TGI / µM>
2.55

$$$$
>  <molecule>
N#Cc1cc(F)cc(Oc2ccc(S(=O)(=O)C(F)F)c3c2CC(F)(F)[C@H]3O)c1

>  <comparison-sign>
>

>  <TGI / µM>
100

$$$$
>  <molecule>
COC(=O)Nc1cc(OCCCOC(C)=O)c2[nH]c(C(=O)OC)cc2c1C[C@H](O)CO

>  <comparison-sign>
>

>  <TGI / µM>
100

$$$$
>  <molecule>
N#CC(C(=O)Nc1ccccc1)C1=C(Cl)C(=O)c2ccccc2C1=O (centres undefined)

>  <comparison-sign>
=

>  <TGI / µM>
32.1

$$$$
>  <molecule>
Cc1nc2ccncc2[nH]1

>  <comparison-sign>
>

>  <TGI / µM>
100

$$$$
>  <molecule>
COc1cc2c(cc1OC)C1=C(C=O)c3ccc(OC)c(OC)c3C(O)N1CC2 (centres undefined)

>  <comparison-sign>
>

>  <TGI / µM>
100

$$$$
>  <molecule>
CCOC(=O)[C@@H](C)C[C@H](Cc1ccccc1)NC(=O)c1csc([C@@H](C[C@H](C(C)C)N(C)C(=O)CNC(=O)[C@H]2CCCCN2C)OC(C)=O)n1

>  <comparison-sign>
>

>  <TGI / µM>
14.3

$$$$
>  <molecule>
Cn1c2c(c3c(=O)[nH]ncc31)Cc1ccccc1-2

>  <comparison-sign>
=

>  <TGI / µM>
60.1

$$$$
>  <molecule>
Cc1ccc(S(=O)(=O)NC(=O)Nc2ccc(C(=O)O)cc2)cc1

>  <comparison-sign>
>

>  <TGI / µM>
100

$$$$
>  <molecule>
O=C(Nc1ccc(-n2cc(-c3ccncc3)c(-c3ccc(O)c(Cl)c3)n2)cc1)Nc1cc(C(F)(F)F)cc(C(F)(F)F)c1

>  <comparison-sign>
=

>  <TGI / µM>
16.5

$$$$
>  <molecule>
O=C(CCCCN1CCN(CCCCC(=O)Nc2ccccc2C#C/C=C\C#Cc2ccccc2C(F)(F)F)CC1)Nc1ccccc1C#C/C=C\C#Cc1ccccc1C(F)(F)F

>  <comparison-sign>
=

>  <TGI / µM>
18.4

$$$$
>  <molecule>
CC(C)(C)OC(=O)N[C@H]1CC(=O)c2ccccc2N(CC(=O)O)C1=O

>  <comparison-sign>
>

>  <TGI / µM>
100

$$$$
>  <molecule>
CC(C)Oc1cccc(N2C(CCc3c[nH]c4ccc(Br)cc34)=NS(=O)(=O)c3cnccc32)c1

>  <comparison-sign>
>

>  <TGI / µM>
100

$$$$
>  <molecule>
CCCCCCCCCCCCCCCCNc1nc(=O)n(C2OC(C)C(O)C2O)cc1F (centres undefined)

>  <comparison-sign>
=

>  <TGI / µM>
37.5

$$$$
>  <molecule>
CC1(C)N=C(/C(Cl)=[N+](/[O-])C(=O)c2ccc(Cl)cc2)C(C)(C)N1O

>  <comparison-sign>
=

>  <TGI / µM>
37.3

$$$$
>  <molecule>
Nc1c(C(=O)Nc2ccccc2)sc2nc3c(cc12)C(=O)CCC3

>  <comparison-sign>
>

>  <TGI / µM>
100

$$$$
>  <molecule>
COc1ccc(/C=C/C(=O)c2c(-c3ccccc3)nn(C)c(=O)c2N2CCCCC2)cc1

>  <comparison-sign>
=

>  <TGI / µM>
30.2

$$$$
>  <molecule>
COc1cccc(/C=N/[N-]C(N)=O)c1[O-].[Cu+2].[OH3+]

>  <comparison-sign>
=

>  <TGI / µM>
27.8

$$$$
